Listed next: entries and their corresponding pIC50.
Biological target: human IsK protein (UniProt P15382+P70057)
Construct: expressed in transfected cells; host or cells: Xenopus laevis oocytes injected with in vitro synthesized IsK RNA
Test: cell-based
Settings: human IsK expressed in Xenopus oocytes; voltage jumps to -10 mV lasting 15 s; pH 7.5; room temperature; Hill equation
pIC50: −log10 of the molar value.

COMPOUND | pIC50
CCS(=O)(=O)N(C)[C@H]1c2cc(OCCCC(F)(F)F)ccc2OC(C)(C)[C@@H]1O [Example 18] | 7.00
CCCOc1ccc2c(c1)C(N(C)S(C)(=O)=O)=CC(C)(C)O2 [Example 9] | 5.59
CCCCOc1ccc2c(c1)[C@@H](N(CC)S(C)(=O)=O)[C@H](O)C(C)(C)O2 (racemic) [Example 14] | 6.70

----------
Target: human IsK protein (UniProt P15382+P70057)
Assay: cell-based
Conditions: human IsK expressed in Xenopus oocytes; voltage jumps to -10 mV lasting 15 s; pH 7.5; room temperature; Hill equation
ASSAY READOUT: IC50

COMPOUND | READING
CN([C@@H]1c2cc(OCc3ccccc3)ccc2OC(C)(C)[C@H]1O)S(C)(=O)=O (racemic) [Example 1] | 200 nM
CCS(=O)(=O)N(C)[C@@H]1c2cc(OCc3ccccc3)ccc2OC(C)(C)[C@H]1O [Example 17] | 400 nM
CCCCOc1ccc2c(c1)C(N(CC)S(C)(=O)=O)=CC(C)(C)O2 [Example 15] | 1300 nM
CCCCN(C1=CC(C)(C)Oc2ccc(OCc3ccccc3)cc21)S(C)(=O)=O [Example 11] | 1600 nM
CO[C@H]1[C@H](N(C)S(C)(=O)=O)c2cc(OCc3ccccc3)ccc2OC1(C)C (racemic) [Example 3] | 6500 nM
CCCCOc1ccc2c(c1)C(N(C)S(C)(=O)=O)=CC(C)(C)O2 [Example 7] | 1600 nM
CC1(C)Oc2ccc(OCCCC(F)(F)F)cc2[C@H](NS(C)(=O)=O)[C@H]1O [Example 23a] | 1700 nM
CCCCN([C@@H]1c2cc(OCc3ccccc3)ccc2OC(C)(C)[C@H]1O)S(C)(=O)=O (racemic) [Example 10] | 400 nM
CCCCOc1ccc2c(c1)[C@@H](N(C)S(C)(=O)=O)[C@H](O)C(C)(C)O2 (racemic) [Example 5] | 250 nM
CCCCOc1ccc2c(c1)[C@@H](N(C)S(C)(=O)=O)[C@H](O)C(C)(C)O2 [Example 16] | 400 nM
COC(=O)CN([C@@H]1c2cc(OCc3ccccc3)ccc2OC(C)(C)[C@H]1O)S(C)(=O)=O (racemic) [Example 12] | 800 nM
CN(C1=CC(C)(C)Oc2ccc(OCCCC(F)(F)F)cc21)S(C)(=O)=O [Example 22] | 600 nM
CC(=O)O[C@H]1[C@H](N(C)S(C)(=O)=O)c2cc(OCCCC(F)(F)F)ccc2OC1(C)C (racemic) [Example 21] | ~10000 nM
CCCCOc1ccc2c(c1)[C@@H](N(C)S(C)(=O)=O)[C@H](OC(C)=O)C(C)(C)O2 (racemic) [Example 6] | > 10000 nM
CC(=O)O[C@H]1[C@H](N(C)S(C)(=O)=O)c2cc(OCc3ccccc3)ccc2OC1(C)C (racemic) [Example 2] | 13000 nM
CN(C1=CC(C)(C)Oc2ccc(OCc3ccccc3)cc21)S(C)(=O)=O [Example 4] | 1600 nM

These measurements were taken from patent US6008245A.
